Every entry's value here was drawn from paper PMC10786891.

- EXPERIMENTAL_TARGET: T1, EsCas13d, nuclease-dead (Eubacterium siraeum, UniProt B0MS50, R295A;H300A;R849A;H854A)
- T1 sequence: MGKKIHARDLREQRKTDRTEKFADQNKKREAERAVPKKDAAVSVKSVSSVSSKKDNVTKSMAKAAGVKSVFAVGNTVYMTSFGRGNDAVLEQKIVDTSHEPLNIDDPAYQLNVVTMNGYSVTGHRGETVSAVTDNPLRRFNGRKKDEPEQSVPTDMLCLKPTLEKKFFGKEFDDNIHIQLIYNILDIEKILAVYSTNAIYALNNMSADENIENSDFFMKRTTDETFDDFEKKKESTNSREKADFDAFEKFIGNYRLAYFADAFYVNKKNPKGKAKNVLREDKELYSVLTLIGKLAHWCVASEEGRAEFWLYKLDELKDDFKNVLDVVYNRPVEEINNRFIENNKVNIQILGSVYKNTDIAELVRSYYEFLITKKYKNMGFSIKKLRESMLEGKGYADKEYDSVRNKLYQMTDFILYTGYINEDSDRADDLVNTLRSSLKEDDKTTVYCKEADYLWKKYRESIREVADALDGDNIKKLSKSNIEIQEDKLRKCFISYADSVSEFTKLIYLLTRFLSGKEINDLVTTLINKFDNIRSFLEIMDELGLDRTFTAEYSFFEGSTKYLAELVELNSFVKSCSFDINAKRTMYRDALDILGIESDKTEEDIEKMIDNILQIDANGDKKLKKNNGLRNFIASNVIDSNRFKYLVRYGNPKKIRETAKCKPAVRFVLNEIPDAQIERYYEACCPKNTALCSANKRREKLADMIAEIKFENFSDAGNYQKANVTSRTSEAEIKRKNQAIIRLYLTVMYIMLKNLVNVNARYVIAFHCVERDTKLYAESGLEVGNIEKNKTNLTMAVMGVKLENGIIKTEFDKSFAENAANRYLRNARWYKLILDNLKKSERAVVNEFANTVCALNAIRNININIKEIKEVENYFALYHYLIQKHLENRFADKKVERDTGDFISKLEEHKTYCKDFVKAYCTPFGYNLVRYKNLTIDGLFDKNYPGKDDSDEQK
- ASSAY_SUMMARY: crRNA (strand 1, pre-loaded); Mg2+; 40 mM Tris-HCl pH 7.5, 150 mM NaCl, 6 mM MgCl2, 1 mM DTT, 0.1% Tween-20, 0.2 mg/ml BSA; 25 C; 10 min per concentration, then washed
- MEASUREMENT_CONTEXT: tags: His6-TwinStrep-SUMO cleaved; N-terminal SNAP kept (SNAP-Surface 488); label: 3' end held by stalled T7 RNA polymerase
OBSERVABLE: pKd
Numbers only, as −log10 of the molar value.

| BINDER | pKd |
| --- | --- |
| target 3 U2A,C16U (mixed) RNA 1: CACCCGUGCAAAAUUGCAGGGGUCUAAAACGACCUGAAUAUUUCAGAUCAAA RNA 2: GGGAAUGGAUCCACAUCUACGAAUUCGUUUUUGAUUUGAAAUAUUCAGGACUGCAGAUCGGAAGAGCACACGU | 7.34 |
| target 1 insA 3' of 5,insG 3' of 4 (mixed) RNA 1: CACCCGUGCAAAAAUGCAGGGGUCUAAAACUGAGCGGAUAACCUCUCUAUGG RNA 2: GGGAAUGGAUCCACAUCUACGAAUUCGUACCAUAGAGAGGUUAUCCGACGUCACCGAGAUCGGAAGAGCACACGU | 8.18 |
| target 3 C6G,A18G (mixed) RNA 1: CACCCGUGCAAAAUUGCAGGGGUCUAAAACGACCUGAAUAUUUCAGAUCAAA RNA 2: GGGAAUGGAUCCACAUCUACGAAUUCGUUUUUGGUCUGAAAUAUUGAGGUCUGCAGAUCGGAAGAGCACACGU | 7.33 |
| target 1 MT 5'PFS CUA 3'PFS CGU (mixed) RNA 1: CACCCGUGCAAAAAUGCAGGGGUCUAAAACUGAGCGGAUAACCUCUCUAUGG RNA 2: GGGAAUGGAUCCACAUCUACGAAUUCCUACCAUAGAGAGGUUAUCCGCUCACGUAGAUCGGAAGAGCACACGU | 7.77 |
| target 1 insU 3' of 21,insA 3' of 7 (mixed) RNA 1: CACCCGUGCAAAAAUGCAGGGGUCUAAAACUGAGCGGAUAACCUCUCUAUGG RNA 2: GGGAAUGGAUCCACAUCUACGAAUUCGUACCUAUAGAGAGGUUAUCACGCUCACCGAGAUCGGAAGAGCACACGU | 7.69 |
| target 2 MT 5'PFS UCA 3'PFS CUA (mixed) RNA 1: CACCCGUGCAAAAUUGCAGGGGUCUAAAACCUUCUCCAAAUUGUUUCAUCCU RNA 2: GGGAAUGGAUCCACAUCUACGAAUUCUCAAGGAUGAAACAAUUUGGAGAAGCUAAGAUCGGAAGAGCACACGU | 8.20 |

Provide pKd values for the following items, in order.
1. target 1 C2U,U19A (mixed) RNA 1: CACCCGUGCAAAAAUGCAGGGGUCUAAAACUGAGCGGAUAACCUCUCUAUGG RNA 2: GGGAAUGGAUCCACAUCUACGAAUUCGUACCAAAGAGAGGUUAUCCGCUUACCGAGAUCGGAAGAGCACACGU
2. target 2 MT 5'PFS UCA 3'PFS AUG (mixed) RNA 1: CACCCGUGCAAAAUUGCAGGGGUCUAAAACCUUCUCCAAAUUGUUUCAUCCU RNA 2: GGGAAUGGAUCCACAUCUACGAAUUCUCAAGGAUGAAACAAUUUGGAGAAGAUGAGAUCGGAAGAGCACACGU

1. 7.58
2. 8.40

Provide pKd values for the following items, in order.
1. target 1 MT 5'PFS GAC 3'PFS AGA (mixed) RNA 1: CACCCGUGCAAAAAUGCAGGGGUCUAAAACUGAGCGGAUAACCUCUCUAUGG RNA 2: GGGAAUGGAUCCACAUCUACGAAUUCGACCCAUAGAGAGGUUAUCCGCUCAAGAAGAUCGGAAGAGCACACGU
2. target 1 C2A,U8G (mixed) RNA 1: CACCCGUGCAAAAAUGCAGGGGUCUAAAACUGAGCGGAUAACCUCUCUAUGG RNA 2: GGGAAUGGAUCCACAUCUACGAAUUCGUACCAUAGAGAGGUUAGCCGCUAACCGAGAUCGGAAGAGCACACGU

1. 7.55
2. 7.71
